# Experimental Target: T1, VEGFR-1-Fc (UniProt P17948 27-338)
# T1 construct: domain: first three Ig domains; expressed in Drosophila S2 cells, purified on Protein A sepharose; also called VEGFR-1-Fc fusion protein; not shown: Fc fragment from the Signal-pIgPlus vector
# T1 sequence (P17948 27-338): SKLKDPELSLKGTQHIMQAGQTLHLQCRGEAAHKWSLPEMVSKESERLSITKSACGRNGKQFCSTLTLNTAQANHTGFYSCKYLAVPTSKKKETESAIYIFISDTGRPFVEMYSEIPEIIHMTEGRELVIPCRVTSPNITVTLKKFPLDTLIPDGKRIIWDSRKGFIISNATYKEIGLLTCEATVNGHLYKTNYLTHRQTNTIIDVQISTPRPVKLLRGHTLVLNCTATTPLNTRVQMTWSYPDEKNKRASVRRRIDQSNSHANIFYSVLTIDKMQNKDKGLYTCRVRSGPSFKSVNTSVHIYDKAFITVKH
# Measurement Description: receptor-Fc IP
Endpoint: binding result

Binder	binding result
71-3 (ligand) GQNHHEVVKSIDNEWRKTQCMPREVCIDVGKEYPDEIEYIFKPSCVPLMRCGGCCNSEGLQCVPTEESNITMQIMRIKPHQGQHIGEMSFLQHNKCECRPKKD	no binding
64-1 (ligand) GQNHHEVVKFMDVYQRSYCHPREVCIDVGKEFGVATNTFFKPSCVPLMRCGGCCNDEGLECVPTEESNITMQIMRIKPHQGQHIGEMSFLQHNKCECRPKKD	no binding
33-1 (ligand) GQNHHEVVKSIDNEWRKTQCMPIETLVDIFQEYPDEIEYIFKPPCVSVYRCGGCCNDEGLECVPTEESNITMQIMRIKPHQGQHIGEMSFLQHNKCECRPKKD	no binding
41-14 (ligand) AHYNTEILKFMDVYQRSYCHPREVCIDVGKEYPDEIEYIFKPSCVPLMRCGGCCNDEGLECMNTSTSYLSKTLFEITVPLSQGPKPVTISFANHTSCRCMSKLD	no binding
62-12 (ligand) GQNHHEVVKFMDVYQRSYCHPREVCIDVGKEFGVATNTFFKPPCVSVYRCGGCCNSEGLQCMNTSTSYLSKTLFEITVPLSQGPKPVTISFLQHNKCECRPKKD	no binding
31-3 (ligand) GQNHHEVVKSIDNEWRKTQCMPIETLVDIFQEYPDEIEYIFKPSCVPLMRCGGCCNDEGLECVPTEESNITMQIMRITVPLSQGPKPVTISFLQHNKCECRPKKD	no binding
83-15 (ligand, clone entry) AHYNTEILKFMDVYQRSYCHPIETLVDIFQEYPDEIEYIFKPPCVSVYRCGGCCNSEGLQCVPTEESNITMQIMRITVPLSQGPKPVTISFANHTSCRCMSKLDL	binds

Here is another binder to look at.
State the recorded binding result for this entry: 81-3 (ligand) AHYNTEILKFMDVYQRSYCHPIETLVDIFQEYPDEIEYIFKPSCVPLMRCGGCCNSEGLQCVPTEESNITMQIMRIKPHQGQHIGEMSFLQHNKCECRPKKD
binds
